# system name: Chymotrypsin (Bos taurus)
# Construct: purchased Worthington
# experiment: Chymotrypsin inhibition (Ac-AAPPhN hydrolysis, 410 mμ)
# Type: biochemical, bovine
# condition description: 0.2 mM Ac-AAPPhN, pH 7.5, α-chymotrypsin; read-out: ID50 Chymotrypsin (converted)
Reported IC50 by item:
Kindly answer with a numeric value in nM, unit omitted.

Sample records with IC50:
>>> assay_value("N#Cc1ccc(N2C(=O)c3ccccc3S2(=O)=O)c(C#N)c1")
3230
>>> assay_value("CCC(CC)C(=O)N1C(=O)c2ccccc2S1(=O)=O [reference compound]")
142
>>> assay_value("N#Cc1ccc(N2C(=O)c3ccccc3S2(=O)=O)nc1")
59600

# input for lookup
Note down IC50 recorded for `N#Cc1cc([N+](=O)[O-])ccc1N1C(=O)c2ccccc2S1(=O)=O`
607

----------
# system name: Human PMN Elastase (Homo sapiens, UniProt P08246)
# Construct: Crude extract of human polymorphonuclear leukocytes (PMN) containing elastase activity; from tissue; host or cells: human polymorphonuclear leukocytes (crude extract)
# Sequence (P08246 30-267): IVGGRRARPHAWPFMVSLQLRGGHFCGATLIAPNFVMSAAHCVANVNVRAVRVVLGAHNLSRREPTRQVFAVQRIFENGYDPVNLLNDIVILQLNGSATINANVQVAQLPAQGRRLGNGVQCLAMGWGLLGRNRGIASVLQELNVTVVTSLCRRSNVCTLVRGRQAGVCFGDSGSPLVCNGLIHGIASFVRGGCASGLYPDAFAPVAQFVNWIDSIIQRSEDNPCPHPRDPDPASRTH
# experiment: Human PMN elastase inhibition (Boc-AAPAN hydrolysis, 410 mμ)
# Assay type: biochemical
# condition description: 0.2 mM Boc-AAPAN, pH 7.5, crude human PMN extract; read-out: ID50 Human PMN Elastase (converted)
# Description: N-tris (hydroxymethyl) methyl-2-aminoethane sulfonic acid 0.2 mM N-t-Box-Alanyl-Alanyl-Prolyl-Alanine-p-nitroanilide=Boc-AAPAN To prepare substrate, the solid (m.w. 550) was first dissolved in 10.0 ml. DMSO. Buffer at pH 7.5 was then added to a final volume of 100 ml. […] To 1.0 ml. of 0.2 mM Box-AAPAN in a cuvette, 0.01-0.1 ml. of DMSO with or without inhibitor was added. […] 0.05 ml. of PMN extract was then added and the ΔOD/min at 410 mμ was measured and recorded. […]
Please note: IC50 exactly at 3 µM is not satisfied. Only values below 3 µM get satisfied.

Some solved entries appear below for comparison.
>>> label_value("CCC(CC)C(=O)N1C(=O)c2ccccc2S1(=O)=O [reference compound]")
"satisfied"
>>> label_value("O=C1c2ccccc2S(=O)(=O)N1c1ccc([N+](=O)[O-])cc1[N+](=O)[O-]")
"satisfied"
>>> label_value("O=C1c2ccccc2S(=O)(=O)N1c1ccc([N+](=O)[O-])cc1 [reference compound]")
"not satisfied"
>>> label_value("N#Cc1ccc(N2C(=O)c3ccccc3S2(=O)=O)c(C#N)c1")
"not satisfied"

API: query returns whether the compound falls strictly under 3 µM in IC50. Query: `N#Cc1ccc(N2C(=O)c3ccccc3S2(=O)=O)nc1`
not satisfied

In the record for O=C(c1ccco1)N1C(=O)c2ccccc2S1(=O)=O [reference compound] , is IC50 less than 3 µM?
satisfied

Hello, is IC50 of the following compound strictly smaller than 3 µM? C=CC(=O)N1C(=O)c2ccccc2S1(=O)=O [reference compound]
satisfied

State whether 3 µM exceeds IC50 recorded for `O=C1c2ccccc2S(=O)(=O)N1c1ncccc1[N+](=O)[O-]` .
satisfied

Does the reported IC50 of the following compound sit strictly below 3 µM? `O=C1c2ccccc2S(=O)(=O)N1c1c(F)c(F)c(F)c(F)c1F`
satisfied

Lab note: IC50 threshold 3 µM. Does this compound come in strictly under it? O=C(c1cccs1)N1C(=O)c2ccccc2S1(=O)=O [reference compound]
satisfied

----------
# system name: Trypsin (Bos taurus, UniProt P00760)
# Construct: purchased Worthington TRL
# Sequence (P00760 24-246): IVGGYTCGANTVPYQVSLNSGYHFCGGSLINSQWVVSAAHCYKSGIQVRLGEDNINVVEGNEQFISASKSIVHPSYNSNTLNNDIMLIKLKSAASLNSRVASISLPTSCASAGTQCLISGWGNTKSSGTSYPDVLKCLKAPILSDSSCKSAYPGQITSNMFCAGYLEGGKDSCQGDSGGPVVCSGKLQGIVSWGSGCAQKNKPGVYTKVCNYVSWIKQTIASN
# experiment: Trypsin inhibition (BAPA hydrolysis, 410 mμ)
# Assay type: biochemical, bovine
readout name: pIC50
Remember, pIC50 is on a log scale: it is -log10 of the molar concentration.

Consider the following illustrative entries.
>>> assay_value("O=C1c2ccccc2S(=O)(=O)N1c1ccc([N+](=O)[O-])cc1 [reference compound]")
3.48
>>> assay_value("O=C1c2ccccc2S(=O)(=O)N1c1c(F)c(F)c(F)c(F)c1F")
3.84
>>> assay_value("O=C1c2ccccc2S(=O)(=O)N1c1ccc([N+](=O)[O-])cc1[N+](=O)[O-]")
3.84

Next compound, pIC50 to be filled in.
Determine from records and report pIC50 for `N#Cc1cc([N+](=O)[O-])ccc1N1C(=O)c2ccccc2S1(=O)=O`
4.22

----------
# system name: Chymotrypsin (Bos taurus)
# Construct: purchased Worthington
# experiment: Chymotrypsin inhibition (Ac-AAPPhN hydrolysis, 410 mμ)
# Assay type: biochemical, bovine
# condition description: 0.2 mM Ac-AAPPhN, pH 7.5, α-chymotrypsin; read-out: ID50 Chymotrypsin (converted)
In this section, each of the molecules is paired with its reported IC50.
For clarity, give the value followed by its unit.

>>> assay_value("C=CC(=O)N1C(=O)c2ccccc2S1(=O)=O [reference compound]")
"295 nM"
>>> assay_value("O=C1c2ccccc2S(=O)(=O)N1c1ncccc1[N+](=O)[O-]")
"655 nM"

# return recorded IC50 for entry O=C(c1ccco1)N1C(=O)c2ccccc2S1(=O)=O [reference compound]
72.1 nM
